Source of measurements: patent US11472769B2

This listing pairs molecules with measured IC50.
- assay-system: recombinant hMAO-B (Homo sapiens (Human), UniProt P27338)
- Sequence (P27338 whole entry): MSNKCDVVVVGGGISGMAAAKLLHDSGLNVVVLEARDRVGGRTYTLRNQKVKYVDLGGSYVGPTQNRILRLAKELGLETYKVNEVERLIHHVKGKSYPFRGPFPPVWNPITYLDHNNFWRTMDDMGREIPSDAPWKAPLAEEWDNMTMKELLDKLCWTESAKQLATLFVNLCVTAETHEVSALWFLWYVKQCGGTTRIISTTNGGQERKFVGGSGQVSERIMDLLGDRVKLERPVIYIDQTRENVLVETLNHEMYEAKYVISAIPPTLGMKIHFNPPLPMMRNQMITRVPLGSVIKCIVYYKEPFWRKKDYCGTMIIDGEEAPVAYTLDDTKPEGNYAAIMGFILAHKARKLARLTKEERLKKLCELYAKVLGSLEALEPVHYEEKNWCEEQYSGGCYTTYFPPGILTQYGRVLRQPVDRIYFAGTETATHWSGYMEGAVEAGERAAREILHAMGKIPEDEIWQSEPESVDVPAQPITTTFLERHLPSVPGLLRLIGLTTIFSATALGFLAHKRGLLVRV
- experiment-summary: MAO-B activity assay (MAO-Glo assay kit)
- conditions-used: 4 μM substrate, 30 mins pre-incubation
observation-type: IC50

1. CC(CN1C(=O)CCC1(C)C)CS(=O)(=O)c1ccc(OC/C(=C/F)CN)cc1 (centres unmarked) [Compound 111]: 10 to 30 µM
2. CC1(C)CCN(CS(=O)(=O)c2ccc(OC/C(=C/F)CN)cc2)C1=O [Compound 125]: < 10 µM
3. NC/C(=C\F)COc1ccc(S(=O)(=O)CC23CCC(C(=O)NCC4CC4)(CC2)CC3)cc1 [Compound 66]: 10 to 30 µM
4. NC/C(=C\F)COc1ccc(S(=O)(=O)CC2CCN(C(=O)C3CCC3)CC2)cc1 [Compound 50]: > 30 µM
5. NC/C(=C/F)COc1ccc(S(=O)(=O)CC23CCC(C(=O)NC4CCC4)(CC2)CC3)cc1 [Compound 140]: > 30 µM
6. CC1(CS(=O)(=O)c2ccc(OC/C(=C/F)CN)cc2)CCN(C(=O)C2(C(F)(F)F)CC2)CC1 [Compound 55]: 10 to 30 µM
7. NC/C(=C\F)COc1ccc(S(=O)(=O)CC23CCC(C(=O)NC4CC(F)(F)C4)(CC2)CC3)cc1 [Compound 69]: 10 to 30 µM
8. CC(C)(C)CC(=O)N1CCC(CS(=O)(=O)c2ccc(OC/C(=C/F)CN)cc2)CC1 [Compound 42]: > 30 µM
